# Test system: Danio rerio embryo/larva
# Measurement description: max % larvae with any abnormality across tested concentrations; max tested concentration (log10 uM): 2; higher = more toxic; extreme values may be limits of the assay
# Condition set: exposure: 6-8 hpf to 5 dpf, scored at 6 dpf
max % larvae values by entry
Response body: numeric value in %, unit text excluded.

>>> df
                                   molecule  recorded_measurement
0  NCC(F)(F)C(F)(F)C(F)(F)C(F)(F)C(F)(F)C(F)(F)F                  33.3

Here is the next item to consider.
Prompt: Need max % larvae, item O=S(=O)(O)C(F)(F)C(F)(F)C(F)(F)C(F)(F)F [Perfluorobutanesulfonic acid]
Completion: 0

* * *

max % larvae generally abnormal across tested concentrations values by entry
# Test system: Danio rerio embryo/larva
# Measurement description: max % larvae generally abnormal across tested concentrations; higher = more toxic; extreme values may be limits of the assay
# Condition set: exposure: 6-8 hpf to 5 dpf, scored at 6 dpf
Response body: numeric value in %, unit text excluded.

Example cases with answers are listed next.
Molecule	Unit string	Recorded measurement
O=C(O)C(F)(F)OC(F)(F)C(F)(F)OC(F)(F)C(F)(F)OC(F)(F)C(F)(F)C(F)(F)C(F)(F)F [Perfluoro-3,6,9-trioxatridecanoic acid] (max tested concentration (log10 uM): 1)	%	50
C=CC(=O)OCC(F)(F)C(F)(F)C(F)(F)C(F)(F)C(F)(F)C(F)(F)C(F)(F)C(F)F [1H,1H,9H-Perfluorononyl acrylate] (max tested concentration (log10 uM): 2)	%	9.09

Here is the next item to consider.
Prompt: Need max % larvae generally abnormal across tested concentrations, item O=C(O)C(F)(F)C(F)(F)C(F)(F)F [Perfluorobutanoic acid] (max tested concentration (log10 uM): 2)
Completion: 20

* * *

# System: Danio rerio embryo/larva
# Measurement description: max % larvae generally abnormal across tested concentrations; higher = more toxic; extreme values may be limits of the assay
# Condition set: exposure: 6-8 hpf to 5 dpf, scored at 6 dpf
Measurement label: max % larvae generally abnormal across tested concentrations (%)
Response body: numeric value in %, unit text excluded.

Example cases with answers are listed next.
Compound	Unit string	Recorded measurement
O=C(O)C(F)(F)C(F)(F)C(F)(F)C(F)(F)C(=O)O [Perfluorohexanedioic acid] (max tested concentration (log10 uM): 2)	%	0
C=CC(=O)OCC(F)(F)C(F)(F)C(F)(F)C(F)(F)COC(=O)C=C [1H,1H,6H,6H-Perfluorohexane-1,6-diol diacrylate] (max tested concentration (log10 uM): 1)	%	25
C=CC(=O)OCC(F)(F)C(F)(F)C(F)(F)C(F)(F)C(F)(F)C(F)(F)C(F)(F)F [1H,1H-Perfluorooctyl acrylate] (max tested concentration (log10 uM): 2)	%	0
OCC(F)(F)C(F)(F)C(F)(F)C(F)F [1H,1H,5H-Perfluoropentanol] (max tested concentration (log10 uM): 2)	%	0
CO[Si](C)(CCC(F)(F)C(F)(F)C(F)(F)C(F)(F)C(F)(F)C(F)(F)F)OC [Dimethoxymethyl((perfluorohexyl)ethyl)silane] (max tested concentration (log10 uM): 1.60206)	%	0

Here is the next item to consider.
Prompt: Need max % larvae generally abnormal across tested concentrations, item O=C(O)C(F)(F)C(F)(F)C(F)(F)C(F)(F)C(F)(F)C(F)(F)C(F)(F)C(F)(F)C(F)(F)C(F)(F)F [Perfluoroundecanoic acid] (max tested concentration (log10 uM): 0.477121)
Completion: 25
